test system: histamine-induced bronchoconstriction; assay: Histamine-induced bronchoconstriction in guinea pigs; assay type: in vivo, guinea pig; conditions: Cavia porcellus, iv, 0.5 min; values in brackets: test compound 0.1 mg/kg, i.v., 30 seconds after administration, histamine 12.5 μg/kg i.v.
Endpoint name: inhibition in vivo at 0.1 mg/kg

Record excerpt, results attached:
Compound: COc1ccc(C2=NNC(=O)CC2C)c2cc(C(C)F)nn12 (centres unmarked)
inhibition in vivo at 0.1 mg/kg: ≥ 90%

Compound: COCc1cc2c(C3=NNC(=O)CC3C)ccc(OC)n2n1 (centres unmarked)
inhibition in vivo at 0.1 mg/kg: ≥ 90%

Compound: COc1ccc(-c2ccc(=O)[nH]n2)c2cc(C(F)(F)F)nn12
inhibition in vivo at 0.1 mg/kg: ≥ 90%

Compound: COc1ccc(C2=NNC(=O)CC2C)c2ccnn12 (centres unmarked)
inhibition in vivo at 0.1 mg/kg: 80 to 90%

// below: inhibition in vivo at 0.1 mg/kg requested for another compound
Suppose we examine the compound COc1ccc(C2=NNC(=O)CC2C)c2cc(C)nn12 (centres unmarked) ; what inhibition in vivo at 0.1 mg/kg value has been reported?
80 to 90%

* * *

Each entry below lists one item and its recorded IC50 value.
target: PDE4Bcat (Homo sapiens); construct: catalytic domain (indicated as “cat,” hereinafter), PDE4Bcat; test: Inhibition of phosphodiesterase activity, [3H]-cAMP hydrolysis, recombinant PDE4Bcat; conditions: cAMP 2 μmol/L, read-out: IC50(μmol/L) PDE4
Sequence (Q07343 330-659 limits assumed): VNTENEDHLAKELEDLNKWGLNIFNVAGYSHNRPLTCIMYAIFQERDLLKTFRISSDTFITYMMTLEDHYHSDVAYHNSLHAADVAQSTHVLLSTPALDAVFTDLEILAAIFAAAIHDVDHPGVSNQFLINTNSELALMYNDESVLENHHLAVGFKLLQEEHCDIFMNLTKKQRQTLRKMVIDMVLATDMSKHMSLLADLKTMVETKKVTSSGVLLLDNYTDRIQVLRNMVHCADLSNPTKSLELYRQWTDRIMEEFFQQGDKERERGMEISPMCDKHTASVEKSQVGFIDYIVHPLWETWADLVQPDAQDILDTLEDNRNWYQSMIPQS

Record excerpt, results attached:
Compound: COc1ccc(-c2ccc(=O)n(Cc3cccnc3)n2)c2cc(C(C)C)nn12
IC50: 1 to 10 µmol/L
//
Compound: CCc1cc2c(C3=NNC(=O)CC3)ccc(OC)n2n1
IC50: 1 to 10 µmol/L
//
Compound: COc1ccc(-c2ccc(=O)n(Cc3ccccn3)n2)c2cc(C(C)C)nn12
IC50: 0.1 to 1 µmol/L

Suppose we examine the compound COc1ccc(-c2cc(C)c(=O)[nH]n2)c2cc(C(C)C)nn12 ; what IC50 value has been reported?
0.1 to 1 µmol/L

Suppose we examine the compound COc1ccc(C2=NNC(=O)CC2C)c2cc(C(C)=O)nn12 (stereo not drawn) ; what IC50 value has been reported?
< 1 µmol/L

Suppose we examine the compound COCc1cc2c(C3=NNC(=O)CC3C)ccc(OC)n2n1 (stereo not drawn) ; what IC50 value has been reported?
0.1 to 1 µmol/L

* * *

molecular target: PDE4Bcat (Homo sapiens); construct: catalytic domain (indicated as “cat,” hereinafter), PDE4Bcat; test: Inhibition of phosphodiesterase activity, [3H]-cAMP hydrolysis, recombinant PDE4Bcat; conditions: cAMP 2 μmol/L, read-out: IC50(μmol/L) PDE4
Endpoint name: IC50

Record excerpt, results attached:
Molecule: CCc1nn2c([S+](C)[O-])ccc(C3=NNC(=O)CC3C)c2c1O (stereo not drawn) [Example 250]
IC50: 0.1 to 1 µmol/L
--
Molecule: COc1ccc(C2=NNC(=O)CC2C)c2cc(SC)nn12 (stereo not drawn) [Example 219]
IC50: 0.1 to 1 µmol/L

// below: IC50 requested for another molecule
Suppose we examine the molecule COc1ccc(C2=NNC(=O)CC2C)c2cc(C3CC3)nn12 (stereo not drawn) [Example 218] ; what IC50 value has been reported?
0.1 to 1 µmol/L

* * *

Each entry below lists one item and its recorded pIC50 value.
biological target: PDE3A catalytic domain (PDE3Acat) (Homo sapiens, UniProt Q14432); construct: cDNA fragments of PDE3A catalytic domain (indicated as “cat,” hereinafter); made in house; host or cells: Sf9 insect cells (baculovirus, Bac-to-Bac); assay: Inhibition of phosphodiesterase activity, [3H]-cAMP hydrolysis, recombinant PDE3Acat; type: biochemical; conditions: human recombinant PDE3Acat, cAMP 2 μmol/L; read-out: IC50(μmol/L) PDE3
Sequence (Q14432 674-1093 limits assumed): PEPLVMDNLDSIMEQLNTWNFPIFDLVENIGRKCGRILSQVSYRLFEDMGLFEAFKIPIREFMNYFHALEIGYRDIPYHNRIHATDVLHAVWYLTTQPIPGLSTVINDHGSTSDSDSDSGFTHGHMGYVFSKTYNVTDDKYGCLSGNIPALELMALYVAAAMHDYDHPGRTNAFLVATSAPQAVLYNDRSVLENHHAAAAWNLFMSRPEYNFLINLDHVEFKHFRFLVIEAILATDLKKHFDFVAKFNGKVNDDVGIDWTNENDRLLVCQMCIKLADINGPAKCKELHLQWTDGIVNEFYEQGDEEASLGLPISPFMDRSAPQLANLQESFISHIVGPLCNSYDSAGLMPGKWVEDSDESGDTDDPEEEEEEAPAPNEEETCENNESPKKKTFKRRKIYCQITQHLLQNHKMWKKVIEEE
pIC50: −log10 of the molar value.

Compound: COc1ccc(C2=NNC(=O)CC2C)c2cc(C)nn12 (centres unmarked)
Value measured: 5.00 to 6.00

Suppose we examine the compound COc1ccc(C2=NNC(=O)CC2C)c2cc(C(C)=O)nn12 (centres unmarked) ; what pIC50 value has been reported?
5.00 to 6.00

Suppose we examine the compound COc1ccc(C2=NNC(=O)CC2C)c2cc(C(F)(F)F)nn12 (single isomer, unassigned; (+)) [Example 317] ; what pIC50 value has been reported?
6.00 to 7.00

Suppose we examine the compound CCc1cc2c(C3=NNC(=O)CC3C)ccc(NCCO)n2n1 (centres unmarked) ; what pIC50 value has been reported?
5.00 to 6.00

Suppose we examine the compound COc1ccc(C2=NNC(=O)CC2C)c2cc(C(F)(F)F)nn12 (centres unmarked) [205(211)] ; what pIC50 value has been reported?
5.00 to 6.00

Suppose we examine the compound COc1ccc(C2=NNC(=O)CC2C)c2cc(C(C)O)nn12 (centres unmarked) ; what pIC50 value has been reported?
5.00 to 6.00

Suppose we examine the compound COc1ccc(-c2n[nH]c(=O)cc2C)c2c(F)c(C(C)C)nn12 ; what pIC50 value has been reported?
< 5.00

Suppose we examine the compound COc1ccc(C2=NNC(=O)CC2C)c2cc(C(F)F)nn12 (centres unmarked) ; what pIC50 value has been reported?
5.00 to 6.00

Suppose we examine the compound COc1ccc(-c2ccc(=O)n(Cc3cccnc3)n2)c2cc(C(C)C)nn12 ; what pIC50 value has been reported?
< 5.00

Suppose we examine the compound CCc1cc2c(C3=NNC(=O)CC3C)ccc(N(C)C)n2n1 (centres unmarked) ; what pIC50 value has been reported?
5.00 to 6.00
